Listing: TGI of selected compounds
test system: HS 578T breast; experiment: NCI tumour cell line growth inhibition, 48 h
All answers are understood in µM, so give the number only.

[[record]]
mol = "C[C@]12CC[C@H](O)CC1=CC[C@@H]1[C@@H]2CC[C@]2(C)C(=N/O)/C(=C/c3ccc([N+](=O)[O-])cc3)C[C@@H]12"
target_or_test_system = "HS 578T breast"
quantity_measured = "TGI"
numeric_readout = 63.5


Pending compound:
Request: GET /values?readout=TGI&item= Cc1nc2c(o1)C(=O)c1ccccc1C2=Nc1ccc(N2CCOCC2)cc1
Result: 12.5

* * *

system: MOLT-4 leukemia; assay: NCI tumour cell line growth inhibition, 48 h
quantity_measured: TGI

Examples with answers:
[[record]]
molecule = "COc1cc(/C=C/C(=O)CC(=O)/C=C/c2ccc(O)c(OC)c2)ccc1O"
target_or_test_system = "MOLT-4 leukemia"
quantity_measured = "TGI"
result = "18 µM"

[[record]]
molecule = "O=C(Nc1ccc(Cl)c(Cl)c1)N1N=C2c3ccccc3CCC2C1c1ccc(Cl)cc1 (stereo unspecified)"
target_or_test_system = "MOLT-4 leukemia"
quantity_measured = "TGI"
result = "> 100 µM"

[[record]]
molecule = "Br/C(=N\\Nc1nn[nH]n1)c1ccncc1"
target_or_test_system = "MOLT-4 leukemia"
quantity_measured = "TGI"
result = "> 100 µM"

[[record]]
molecule = "NC1=NCCN1CC(=O)O"
target_or_test_system = "MOLT-4 leukemia"
quantity_measured = "TGI"
result = "> 10000 µM"

[[record]]
molecule = "c1ccc2c(c1)[nH]c1c2nc2ncccn21"
target_or_test_system = "MOLT-4 leukemia"
quantity_measured = "TGI"
result = "> 100 µM"

[[record]]
molecule = "COc1ccc(OC)c(-c2cc(=O)c3c(OC)c(OC)c(OC)c(OC)c3o2)c1"
target_or_test_system = "MOLT-4 leukemia"
quantity_measured = "TGI"
result = "63.2 µM"


Request: GET /values?readout=TGI&item= COc1ccc2[nH]cc(CCNC(=O)[C@](O)(Cc3cn(C)c4ccccc34)[C@@]3(O)OCC(O)C3O)c2c1 (stereo partly specified)
Result: > 100 µM

Request: GET /values?readout=TGI&item= CN(C)CCCNC(=O)c1cncnc1Nc1ccc(OCc2cccc(F)c2)c(Cl)c1
Result: 3.4 µM

Request: GET /values?readout=TGI&item= CCC1C(=O)C(O)[C@H]2[C@@H]3C(O)CC4=CC(=O)CC[C@]4(C)[C@H]3CC[C@]12C (stereo partly specified)
Result: > 50 µM

Request: GET /values?readout=TGI&item= COc1cccc2c1c(C1=C(c3cn(C)c4ccccc34)C(=O)NC1=O)cn2C
Result: > 25 µM

Request: GET /values?readout=TGI&item= COc1ccc2oc(C(=O)O)c3c2c1CCC3
Result: > 100 µM

Request: GET /values?readout=TGI&item= Nc1c(C(=O)c2ccc(CCCN3CCOCC3)cc2)cnn1-c1ccc(F)cc1
Result: > 25 µM

Request: GET /values?readout=TGI&item= CCC[CH2][Sn]1([CH2]CCC)[O]C(=O)c2ccc(C)cc2[O]1
Result: 0.621 µM

Request: GET /values?readout=TGI&item= Cc1ccc2[nH]c3c(c2c1)C1CCC(C(C)(C)C)CC1C1C(=O)N(c2ccc4c(c2)OCO4)C(=O)C31 (stereo unspecified)
Result: 4.25 µM

Request: GET /values?readout=TGI&item= O=c1c2ccccc2c2ccccc2c(=O)n1Cc1ccc2c(c1)OCO2
Result: > 50.6 µM

Request: GET /values?readout=TGI&item= COc1c(C)cc2c(c1O)C1NC(C2)[C@H](O)N2C3COC(=O)[C@@]4(CS[C@@H](c5c(OC(C)=O)c(C)c6c(c53)OCO6)C12)NCCC1=C4NC2C=CC=CC12 (stereo partly specified)
Result: < 0.01 µM

Request: GET /values?readout=TGI&item= SC1CCCN(Cc2ccccc2)C1 (stereo unspecified)
Result: 78.2 µM
